Target: DOR (Mus musculus, UniProt P32300)
Construct: Male ICR mice under CO2 anesthesia were sacrificed by cervical dislocation and the vasa differentia removed; from tissue; host or cells: mouse vas deferens (ICR mice)
Sequence (P32300 whole entry): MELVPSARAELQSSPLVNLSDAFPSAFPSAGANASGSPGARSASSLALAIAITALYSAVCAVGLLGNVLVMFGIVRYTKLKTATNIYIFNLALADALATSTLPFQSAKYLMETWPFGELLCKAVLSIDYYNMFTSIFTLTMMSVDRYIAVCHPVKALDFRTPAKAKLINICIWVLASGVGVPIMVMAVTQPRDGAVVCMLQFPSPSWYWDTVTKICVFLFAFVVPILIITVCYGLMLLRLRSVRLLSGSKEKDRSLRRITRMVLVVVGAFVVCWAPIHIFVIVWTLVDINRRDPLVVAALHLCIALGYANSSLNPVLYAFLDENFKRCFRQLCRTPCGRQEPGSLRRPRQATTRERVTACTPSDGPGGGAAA
Assay: Mouse isolated vas deferens (MVD) functional assay
Format: cell-based
Details: MVD (DOR) IC50 (nM), agonist activity, electrically stimulated tissue
Non-standard residues stand in square brackets, D forms with d. Residues, ends and D or L forms follow the SMILES beside them. *: point of attachment. NH(3,5-(CF3)2-benzyl) = FC(F)(F)c1cc(CN*)cc(C(F)(F)F)c1; NMePhe(4-F) = CN[C@@H](Cc1ccc(F)cc1)C(=O)O; Phe(4-F) = N[C@@H](Cc1ccc(F)cc1)C(=O)O; Dmt = Cc1cc(O)cc(C)c1C[C@H](N)C(=O)O; NMeF = CN[C@@H](Cc1ccccc1)C(=O)O
EXPERIMENTAL READOUT: log10 of IC50 (log10 of the value in nM)
A difference of one corresponds to tenfold IC50; all values are log10 with IC50 in nM.

In the examples that follow, each entry is paired with its recorded log10 of IC50.
{"columns": ["COMPOUND", "NUMERIC VALUE"],
 "data": [
  ["CC(C)C[C@H](NC(=O)[C@@H]1CCCN1C(=O)[C@H](Cc1ccccc1)N(C)C(=O)CNC(=O)[C@@H](C)NC(=O)[C@@H](N)Cc1ccc(O)cc1)C(=O)N[C@@H](Cc1c[nH]c2ccccc12)C(=O)NCc1cc(C(F)(F)F)cc(C(F)(F)F)c1", 2.00],
  ["CC(C)C[C@H](NC(=O)[C@@H]1CCCN1C(=O)[C@H](CO)NC(=O)[C@H](Cc1ccc(F)cc1)N(C)C(=O)CNC(=O)[C@@H](C)NC(=O)[C@@H](N)Cc1ccc(O)cc1)C(=O)N[C@@H](Cc1c[nH]c2ccccc12)C(=O)NCc1cc(C(F)(F)F)cc(C(F)(F)F)c1 [AKG134] (H-Y[dA]G[NMePhe(4-F)]SPLW-{NH(3,5-(CF3)2-benzyl)})", 0.95],
  ["Cc1cc(O)cc(C)c1C[C@H](N)C(=O)N[C@H](C)C(=O)NCC(=O)N(C)[C@@H](Cc1ccccc1)C(=O)N[C@@H](CO)C(=O)NCC(=O)N1CCC[C@H]1C(=O)N[C@@H](CC(C)C)C(=O)N[C@@H](Cc1c[nH]c2ccccc12)C(=O)NCc1cc(C(F)(F)F)cc(C(F)(F)F)c1 [AKG-CRA-137] (H-[Dmt][dA]G[NMeF]SGPLW-{NH(3,5-(CF3)2-benzyl)})", 1.21],
  ["Cc1cc(O)cc(C)c1C[C@H](N)C(=O)N[C@H](C)C(=O)NCC(=O)N[C@@H](Cc1ccc(Cl)cc1)C(=O)N1CCC[C@H]1C(=O)N[C@@H](CC(C)C)C(=O)N[C@@H](Cc1c[nH]c2ccccc12)C(=O)NCc1cc(C(F)(F)F)cc(C(F)(F)F)c1", 1.40],
  ["CC(C)C[C@H](NC(=O)[C@@H]1CCCN1C(=O)[C@H](Cc1ccc(F)cc1)NC(=O)CNC(=O)[C@@H](C)NC(=O)[C@@H](N)Cc1ccc(O)cc1)C(=O)N[C@@H](Cc1c[nH]c2ccccc12)C(=O)NCc1cc(C(F)(F)F)cc(C(F)(F)F)c1", 1.08]
]}

**Query** Checklist item: log10 of IC50 tested on DOR (Mus musculus, UniProt P32300), entry Cc1cc(O)cc(C)c1C[C@H](N)C(=O)N[C@H](C)C(=O)NCC(=O)N(C)[C@@H](Cc1ccc(F)cc1)C(=O)N[C@@H](CO)C(=O)N1CCC[C@H]1C(=O)N[C@@H](CC(C)C)C(=O)N[C@@H](Cc1c[nH]c2ccccc12)C(=O)NCc1cc(C(F)(F)F)cc(C(F)(F)F)c1 [AKG135] (H-[Dmt][dA]G[NMePhe(4-F)]SPLW-{NH(3,5-(CF3)2-benzyl)}; N-terminus assumed) , value?
**Result** 1.19

**Query** Checklist item: log10 of IC50 tested on DOR (Mus musculus, UniProt P32300), entry CCCC[C@H](NC(=O)[C@H](Cc1ccccc1)N(C)C(=O)CNC(=O)[C@@H](C)NC(=O)[C@@H](N)Cc1ccc(O)cc1)C(=O)N1CCC[C@H]1C(=O)N[C@@H](CC(C)C)C(=O)N[C@@H](Cc1c[nH]c2ccccc12)C(=O)NCc1cc(C(F)(F)F)cc(C(F)(F)F)c1 , value?
**Result** 1.06

**Query** Checklist item: log10 of IC50 tested on DOR (Mus musculus, UniProt P32300), entry CC(C)C[C@H](NC(=O)[C@@H]1CCCN1C(=O)CNC(=O)[C@H](Cc1ccc(F)cc1)NC(=O)CNC(=O)[C@@H](C)NC(=O)[C@@H](N)Cc1ccc(O)cc1)C(=O)N[C@@H](Cc1c[nH]c2ccccc12)C(=O)NCc1cc(C(F)(F)F)cc(C(F)(F)F)c1 [AKG130] (H-Y[dA]G[Phe(4-F)]GPLW-{NH(3,5-(CF3)2-benzyl)}) , value?
**Result** 1.08
